- measured on: T1, squid p30 (AUF1 homolog) (Aedes albopictus (cDNA from C6/36 cells), UniProt A0ABM1XVA0 2-281)
- T1 sequence: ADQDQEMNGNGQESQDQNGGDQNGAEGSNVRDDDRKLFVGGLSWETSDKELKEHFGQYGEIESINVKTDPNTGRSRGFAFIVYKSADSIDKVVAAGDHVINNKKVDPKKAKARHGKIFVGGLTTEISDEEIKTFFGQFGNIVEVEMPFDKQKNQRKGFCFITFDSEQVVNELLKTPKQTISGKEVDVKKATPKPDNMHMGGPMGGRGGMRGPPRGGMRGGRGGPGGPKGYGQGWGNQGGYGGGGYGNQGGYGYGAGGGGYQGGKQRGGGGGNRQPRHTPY
- protocol details: fluorescence intensity titration
- experimental conditions: protein: recombinant; tags: none after cleavage (SUMO fusion removed by SUMO protease)
pKd: −log10 of the molar value.
quantity: pKd

> print(dat)
                                     binder  quantity  experimental.value
1  UAUUUAGUGGUGUUAG (ssRNA) [AU/GU-rich RNA]       pKd                7.89
2     CUAAGAUGCUCGCUGC (ssRNA) [random RNA]       pKd                6.60

Origin of values: paper PMC7019923
